- Assay procedure: in vitro
- Condition label: mouse, microsomes, pH 7.4, % Remaining, T=30 min, n=1, mouse liver microsomes, 1 µM, 30 min, n=1
// reported remaining at 0.5 h, 1 µM for each item listed
Could you give me the number in %? Just the number is fine.

1) O=C1NC(=O)C(=C/C=C/c2ccccc2)C(=O)N1 :: 0

Memo: O=C1NC(=O)C(=Cc2ccc(-c3ccccc3F)[nH]2)C(=O)N1 , reported remaining at 0.5 h, 1 µM: 0.554

Memo: O=C1NC(=O)C(=Cc2ccc(N3CCOCC3)cc2[N+](=O)[O-])C(=O)N1 , reported remaining at 0.5 h, 1 µM: 85

Memo: COc1cc(C=C2C(=O)NC(=O)NC2=O)ccc1O , reported remaining at 0.5 h, 1 µM: 6.6

----------
- Assay procedure: in vitro
- Condition label: male, CD1, mouse, microsomes, pH 7.4, mouse liver microsomes CLint, app, mouse liver microsomes, NADPH, 1 μM
// reported microsomal CLint at 1 μM for each item listed

Past entries and their recorded results:
1. O=C1NC(=O)C(=C/C=C/c2ccccc2)C(=O)N1 :: > 578 µL/min/mg
2. O=C1NC(=O)C(=Cc2ccc(-c3ccccc3F)[nH]2)C(=O)N1 :: > 578 µL/min/mg
3. O=C1NC(=O)C(=Cc2ccc(N3CCOCC3)cc2[N+](=O)[O-])C(=O)N1 :: < 14.4 µL/min/mg

Now look at this entry.
Memo: COc1cc(C=C2C(=O)NC(=O)NC2=O)ccc1O , reported microsomal CLint at 1 μM: 290 µL/min/mg

----------
// reported Modified T-half (min), Average for each item listed
- Condition label: mouse liver microsomes, 0.4 mg/ml, 1 µM, average; limited to T Half range 3.00 - […]
Could you give me the number in min? Just the number is fine.

1. O=C(O)Cc1ccccc1Nc1c(Cl)cccc1Cl [Diclofenac] :: 59.3

Now look at this entry.
Memo: COc1cc(C=C2C(=O)NC(=O)NC2=O)ccc1O [2c] , reported Modified T-half (min), Average: 6.0

----------
- Assay procedure: in vitro
- Condition label: male, CD1, mouse, microsomes, pH 7.4, % Remaining, T=5 min, n=2, mouse liver microsomes, 1 µM, 5 min, n=2
Recorded metric: remaining at 5 min, 1 μM (%)
Could you give me the number in %? Just the number is fine.

1) O=C1NC(=O)C(=Cc2ccc(N3CCOCC3)cc2[N+](=O)[O-])C(=O)N1 [2e] :: 103
2) O=C1NC(=O)C(=Cc2ccc(-c3ccccc3F)[nH]2)C(=O)N1 [2h] :: 5.1
3) O=C1NC(=O)C(=C/C=C/c2ccccc2)C(=O)N1 [2i] :: 28.1

Memo: COc1cc(C=C2C(=O)NC(=O)NC2=O)ccc1O [2c] , reported remaining at 5 min, 1 μM: 50.5

----------
- Measured on: LbDHODH (Leishmania braziliensis, UniProt E9AI53)
- Sequence (E9AI53 entry or part of it): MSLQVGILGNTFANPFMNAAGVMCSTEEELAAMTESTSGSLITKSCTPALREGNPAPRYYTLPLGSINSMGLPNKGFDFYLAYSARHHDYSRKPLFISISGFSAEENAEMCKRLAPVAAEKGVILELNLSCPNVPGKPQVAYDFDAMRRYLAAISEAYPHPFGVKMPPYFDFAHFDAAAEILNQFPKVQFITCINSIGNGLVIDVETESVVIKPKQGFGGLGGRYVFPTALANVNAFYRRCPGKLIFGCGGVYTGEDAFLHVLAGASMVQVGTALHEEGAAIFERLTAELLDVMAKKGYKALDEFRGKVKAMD
- Assay procedure: biochemical
- Condition label: 4 h, pH 8.15, read-out: LbDHODH Activity±SD (%)
Recorded metric: activity at 0.78125 µM (%)
Could you give me the number in %? Just the number is fine.

1. O=C1NC(=O)C(=Cc2ccc(N3CCOCC3)cc2[N+](=O)[O-])C(=O)N1 [2e] :: 103
2. O=C1NC(=O)C(=Cc2ccc(O)c([N+](=O)[O-])c2)C(=O)N1 [2d] :: 76
3. O=C1NC(=O)C(=C/C=C/c2ccccc2)C(=O)N1 [2i] :: 38
4. O=C1NC(=O)C(=Cc2cccc(O)c2)C(=O)N1 [2g] :: 88
5. COc1cc(C=C2C(=O)NC(=O)NC2=O)ccc1O [2c] :: 97
6. O=C1NC(=O)C(=Cc2ccccc2)C(=O)N1 [2a] :: 91
7. O=C1NC(=O)C(=Cc2ccc(-c3ccccc3)cc2)C(=O)N1 [2f] :: 85.6

Memo: O=C1NC(=O)C(=Cc2ccc(C(=O)O)cc2)C(=O)N1 [2b] , reported activity at 0.78125 µM: 91
